# credit: patent US20200062856A1

tested-on: T1, human TPBG antigen immobilized on a CM5 chip (human, UniProt Q13641 32-355, limits assumed)
T1 sequence (looked up): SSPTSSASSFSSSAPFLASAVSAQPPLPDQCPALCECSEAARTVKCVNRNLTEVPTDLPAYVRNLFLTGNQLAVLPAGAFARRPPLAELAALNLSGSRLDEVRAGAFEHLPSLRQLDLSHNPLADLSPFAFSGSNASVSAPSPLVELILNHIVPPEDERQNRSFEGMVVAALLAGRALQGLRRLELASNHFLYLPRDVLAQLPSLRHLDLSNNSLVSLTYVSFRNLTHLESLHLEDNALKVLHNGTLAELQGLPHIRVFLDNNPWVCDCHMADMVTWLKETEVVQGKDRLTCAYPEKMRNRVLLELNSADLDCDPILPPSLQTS
assay-protocol: SPR (Biacore), human TPBG antigen immobilized on CM5 chip
measured-property: kon (M⁻¹ s⁻¹)
State the answer as a number, implicitly in M⁻¹ s⁻¹.

Req: Name the recorded kon of the binder listed here: Humanized antibody 28D4-12 (antibody, V domains shown, also called h28D4-12) VH: EVQLVESGGGLVKPGGSLRLSCAASGFTFSNYVMSWARQAPGKRLEWVAEISTGGSHTYYSDTVTGRFTISRDNAKKSLYLQMNSLRAEDTAVYYCIMFYYGSSYSMDYWGQGTTVTVSS VL: DIQMTQSPSSLSASVGDRVTITCRASQDIRNYLNWYQQKPGKTVKLLIYHTSRLHSGVPSRFSGSGSGTDYTFTISSLQPEDIATYFCQQGDTLPLTFGQGTRLEIK
Resp: 1.03e+06

Req: Name the recorded kon of the binder listed here: Humanized antibody 28D4-4 (antibody, V domains shown, also called h28D4-4) VH: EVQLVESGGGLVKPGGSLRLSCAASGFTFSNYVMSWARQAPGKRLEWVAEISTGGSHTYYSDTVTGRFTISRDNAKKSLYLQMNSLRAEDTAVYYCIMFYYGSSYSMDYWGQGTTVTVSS VL: DIQMTQSPSSLSASVGDRVTITCRASQDIRNYLNWYQQKPGKAPKLLIYHTSRLHSGVPSRFSGSGSGTDFTFTISSLQPEDIATYYCQQGDTLPLTFGQGTRLEIK
Resp: 1.55e+06
